protocolDescription: Wettability of EGMBE compared with alternative solvents/blends
Assay type: physicochemical
valueKind: wettability, Mean (°)
Give the number; ° is assumed, so skip it.

Record excerpt, results attached:
compound: COC(=O)C(C)CCC(=O)N(C)C (stereo not drawn) [Polarclean]
unitsSymbol: °
resultValue: 48.9
//
compound: CC1(C)OCC(CO)O1 (stereo not drawn)
unitsSymbol: °
resultValue: 50.5
//
compound: CCCCOCC(C)O (stereo not drawn)
unitsSymbol: °
resultValue: 29.8
//
compound: O
unitsSymbol: °
resultValue: 109.2
//
compound: CCCCOCCOCCO
unitsSymbol: °
resultValue: 50.8

Continue with the compound presented below.
Just so you know, measured wettability, Mean (°) for CCCCOCCO came out at 45.0

====

protocolDescription: Miscibility test with common oilfield solvents (Tables 3-5)
Format: physicochemical
Parameters: key: S = separate; M = miscible
statedConditions: 50/50 volume per volume
valueKind: Solubility in Brines (Forties FW)

molecule: COC(=O)C(C)CCC(=O)N(C)C (stereo not shown) [Polarclean]
valueKind: Solubility in Brines (Forties FW)
resultValue: M
--
molecule: CC(C)O [IPA, isopropyl alcohol]
valueKind: Solubility in Brines (Forties FW)
resultValue: M
--
molecule: CCCCOCC(C)O (stereo not shown) [Dowanol, propylene glycol n-butyl ether]
valueKind: Solubility in Brines (Forties FW)
resultValue: S
--
molecule: CC1(C)OCC(CO)O1 (stereo not shown) [Augeo SL 191]
valueKind: Solubility in Brines (Forties FW)
resultValue: M

====

protocolDescription: Miscibility test with common oilfield solvents (Tables 3-5)
Type: physicochemical
Parameters: key: S = separate; M = miscible
statedConditions: 50/50 volume per volume, shaken about a minute, let stand about 5 mins
valueKind: Solubility in Crude oil

compound: CC1(C)OCC(CO)O1 (stereo not shown)
valueKind: Solubility in Crude oil
resultValue: S
//
compound: CC(C)O
valueKind: Solubility in Crude oil
resultValue: M
//
compound: COC(=O)C(C)CCC(=O)N(C)C (stereo not shown) [Polarclean]
valueKind: Solubility in Crude oil
resultValue: S
//
compound: CCCCOCC(C)O (stereo not shown)
valueKind: Solubility in Crude oil
resultValue: M

====

protocolDescription: Miscibility test with common oilfield solvents (Tables 3-5)
Assay type: physicochemical
Design: key: S = separate; M = miscible
statedConditions: 50/50 volume per volume
Description: For each test solvent, it is blended with a common solvent at 50/50 volume per volume ratio. It is shaken vigorously for about a minute and let stand for about 5 mins. A complete miscibility is recorded if there is no formation of layers. Formation of turbid mixture or multiple layers is recorded as immiscible or separate.
valueKind: Solubility in Alpha Olefin C1618

compound: CC(C)O
resultValue: M
--
compound: CC1(C)OCC(CO)O1 (stereo not shown)
resultValue: S
--
compound: CCCCOCC(C)O (stereo not shown)
resultValue: M
--
compound: COC(=O)C(C)CCC(=O)N(C)C (stereo not shown) [Polarclean]
resultValue: S

====

protocolDescription: Miscibility test with common oilfield solvents (Tables 3-5)
Assay type: physicochemical
Set-up: key: S = separate; M = miscible
statedConditions: 50/50 volume per volume

molecule: CCCCOCC(C)O (stereo not shown)
Solubility in isoparrafin: M
//
molecule: CC(C)O
Solubility in isoparrafin: M
//
molecule: COC(=O)C(C)CCC(=O)N(C)C (stereo not shown) [Polarclean]
Solubility in isoparrafin: S
//
molecule: CC1(C)OCC(CO)O1 (stereo not shown)
Solubility in isoparrafin: S
